These entries and their values trace back to the supplement of paper PMC9170038.

Each entry below lists one item and its recorded apparent KD of MS2 coat protein value.
Tested on: MS2 coat protein
measurementNotes: apparent KD of MS2 coat protein; higher = weaker reporter binding
conditionInfo: Eterna round: R107; input ligand: theophylline 2 mM
measurementKind: apparent KD of MS2 coat protein (nM)

querySequence | measurementKind | unitAbbrev | numericValue
ACAUGAGGAUCACCCAUGUUUGAUGUUCCUCGAGGACCGGUACGGCCGCCACUCGAACGAGUGGCGCGCGCGCGCGCGCGCGCGC [aQa] | apparent KD of MS2 coat protein | nM | 14.5
UGAUACCAGUCGGCCGCCACUAUGCUAGAUACUAGCAAUAAAUGGGAACAUGAGGAUCACCCAUGUAGGACCGGGACUGGUAUCU | apparent KD of MS2 coat protein | nM | 42.7
ACAUGAGGAUCACCCAUGUAGUAGUCAGAAGGAGCGUGGAAUAACACAGGUAGGUCGCUGAUGUUUGGUUAAAUGUAAUCGUGUA [#30 Same State - Arginine A] | apparent KD of MS2 coat protein | nM | 18.3
GUUAUGGACCUGGAUACCAGCUGGUACGAGGGCGGUCUACAUGAGGAUCACCCAUGUGUCAGCCCUUGGCAGCCAGCAACCCGCU [Raquleer] | apparent KD of MS2 coat protein | nM | 11.9

---

Test system: MS2 coat protein
measurementNotes: apparent KD of MS2 coat protein; designed switch direction (-1 OFF switch, 1 ON switch): 1; higher = weaker reporter binding
conditionInfo: input ligand: FMN 200 uM

querySequence | unitAbbrev | apparent KD of MS2 coat protein
UGGUAACAUGAGGAUCACCCAUGUCAAAUGAAUCGAGGAUAUGGGAAUUAACAACACAAACUAGAAGGCGAAUUUG [Altered State 1-8 - Jieux - Same State 1] (Eterna round: R96, puzzle: Same State 1) | nM | 316
GCCGCGUUUCGCGCCUACAUGAGGAUCACCCAUGUUUGUAGGCAGGAUAUCGCUCGCUUUGCGGGCGAGAAGGGCUGUUGUGGC [salish99_SSNG3_R04_019] (Eterna round: R96, puzzle: Same State NG 3) | nM | 45.8

---

System: K4 kissing-loop RNA reporter;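 further: bound reporter read as fluorescence of individual clusters on recovered sequencing chips by microscopy, with normalized cluster intensities fitted with a binding model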
measurementNotes: apparent KD of K4 kissing-loop reporter; higher = weaker reporter binding
conditionInfo: Eterna round: R107; input ligand: tryptophan 2.4 mM
Lab note: class by apparent KD of K4 kissing-loop reporter, see label 0: < 200 nM; label 1: ≥ 200 nM and < 400 nM; label 2: ≥ 400 nM

querySequence | group
GCCCGGUGAAUCCGCCAAGAUAGACACCGUCGAGGACCGGUACGGCCGCCACUCGAGUACGAGUGAUGUUCGUACGCGGUGUCGA [Onedzate] | label 0
CGCCGCAAGGCGGUCCUGCCCACUCCGGAAGGAGCGCCCGCAAGGGCAGGUAGGUCGCCGGAGUGAUGUUCCGGUGGCAGGACCG [#2 Exclusion - Arginine A Attempt #4 (Inspired by Omei)] | label 1
GUUACGCAUGGAAGGAGCGCUCUCAUAUUUAAUAACACAGUGAUGUUGUGAAUUUAUAUAAAGCAGGUAGGUCGCCAUGUGUAAC [Ex Arginine B K4 6] | label 1
CUGUACAUCUCGGCCGCCACUGACAUGAGUGAUGUUCAUGUACAUGAGUGAUGUUCAUGUUCGGCCAGGACCGGGAGGUGUGCAG [KL-SSTryp-B2 #analogue #double KL] | label 1
GUUCGAUUCUGAGUGAUGUUGAGAAUUGAGAAGGAUAUCCAGAAAAGGAGAAGGUCUACGUCAUGCGCCUCGAUUUGCUAGCUGC [theeternabot_exclusion_KL_FMN_A_50] | label 2
UUAUAUUUUAUAUUUAGUAGAGCUCUAGCUCGAGGACCGGUACGGCCGCCACUCGAGUGAUGUUCGAGUGGGUGAGCUCUACAUU [AK3 EXC Tryptophan A] | label 1
UGAUACCAGACGGCCGCCACUUCCGCAAGUCAAAGACUUGCCAAGGGAAUCGUCCAGUGAUGUUGGAGGACCGGGUCUGGUAUCU [FiskerMod 4 - Jieux - Exclusion - Tryptophan B] | label 2
ACGCUAGCUACCGAAAGGUAGCUAGCGAGUGAGGAUAUGUGGAAACACAGAAGGCACAGCGCAGUGAUGUUGUGCGGCGGAAGCG [whbob_SS_FMNA__2th168] | label 2
UAUAAGCGCAGAGGAUAUACUAGCUUUCACUAGUGCAGUGAUGUUGCACUAGACCAGCUGUACAUAGUAGAAGGCUGCGUUCCUU [FMN B SS t1] | label 0
GUGCGCGCGGCGGCCGCCACUCGCAUGAGAGUGAUGUUCUCACCGUGACCGCAAGGUCGCGGUGUGAGGACCGGGCCGGGCUGCG [#2 Same State - Tryptophan B Attempt #25 (HarryS)] | label 1
UCCUGCUGUCAGCCACGAAAGUGGAUUGAUACCAGAGUCGAAAGACUCCCUUGGCAGCGAGUGAUGUUCGCAGCAGGUAAAUAAA [MatMod 3 - Jieux - Exclusion - Theophylline A] | label 1
